Data provenance is ChEMBL document CHEMBL3232775.

# ASSAY NAME: Cytotoxicity against human L02 cells assessed as inhibitory rate at 80 uM after 24 hrs by MTT assay
# Type: cell-based
# SETTINGS: read-out: INH
The label T is reserved for cytotoxicity at 24 h, 80 µM strictly under 6%; F covers values equal to or above it.

>  <COMPOUND STRUCTURE>
COc1ccc2cccc(CCN3C(=O)CC(C)(C)CC3=O)c2c1

>  <GROUP>
F

$$$$
>  <COMPOUND STRUCTURE>
COc1ccc2cccc(CCNC(=O)CC(C)(C)CC(=O)O)c2c1

>  <GROUP>
T

$$$$
>  <COMPOUND STRUCTURE>
COc1ccc2cccc(CCN3C(=O)C(C)=C(C)C3=O)c2c1

>  <GROUP>
F

$$$$
>  <COMPOUND STRUCTURE>
COc1ccc2cccc(CCNC(=O)N3CCN(C(=O)OC(C)(C)C)CC3)c2c1

>  <GROUP>
T

$$$$
>  <COMPOUND STRUCTURE>
COc1ccc2cccc(CCNC(=O)/C(Cl)=C(\Cl)C(=O)O)c2c1

>  <GROUP>
T

$$$$
>  <COMPOUND STRUCTURE>
COc1ccc2cccc(CCNC(=O)N3CCN(C)CC3)c2c1

>  <GROUP>
F

$$$$
>  <COMPOUND STRUCTURE>
COc1ccc2cccc(CCNC(=O)/C=C/C(=O)O)c2c1

>  <GROUP>
T

$$$$
>  <COMPOUND STRUCTURE>
COc1ccc2cccc(CCNC(=O)N(C)CCO)c2c1

>  <GROUP>
T

$$$$
>  <COMPOUND STRUCTURE>
COc1ccc2cccc(CCNC(=O)/C(C)=C(\C)C(=O)O)c2c1

>  <GROUP>
T

$$$$
>  <COMPOUND STRUCTURE>
COc1ccc2cccc(CCNC(=O)CCC(=O)O)c2c1

>  <GROUP>
T

$$$$
>  <COMPOUND STRUCTURE>
COc1ccc2cccc(CCNC(=O)N3CCCC3)c2c1

>  <GROUP>
F

$$$$
